Square brackets hold non-standard residues; d marks the D form. Peptide text beside a SMILES is read from it. Phe(F5) = N[C@@H](Cc1c(F)c(F)c(F)c(F)c1F)C(=O)O; 1Nal = N[C@@H](Cc1cccc2ccccc12)C(=O)O; β3hY = N[C@H](CC(=O)O)Cc1ccc(O)cc1; Asu = N[C@@H](CCCCCC(=O)O)C(=O)O; β3hL = CC(C)C[C@H](N)CC(=O)O; hLys = NCCCCC[C@H](N)C(=O)O
In what follows, each item is paired with its IC50 for Histone deacetylase 1 (Homo sapiens, UniProt Q13547).
Numbers only, in nM.

Here's what some known entries look like.
{"COMPOUND": "CC(C)C[C@H]1CC(=O)N[C@@H](C)C(=O)N[C@@H](CCCCCC(=O)O)C(=O)N[C@@H](Cc2cccc3ccccc23)C(=O)N1 (cyclo([Asu][1Nal][β3hL]A))", "IC50 (nM)": 200}
{"COMPOUND": "CC(=O)NCCCCC[C@@H]1NC(=O)C[C@H](CC(C)C)NC(=O)[C@H](Cc2cccc3ccccc23)NC(=O)[C@H](CCCCCC(=O)O)NC1=O (cyclo([1Nal][β3hL][hLys](Ac)[Asu]))", "IC50 (nM)": 8}
{"COMPOUND": "CCC(=O)CCCCC[C@@H]1NC(=O)C[C@H](CC(C)C)NC(=O)[C@H](Cc2c[nH]c3ccccc23)NC(=O)[C@H](CCCCCC(=O)CC)NC1=O", "IC50 (nM)": 150}

Dear colleague, I am looking for the recorded IC50 of the following compound: O=C(O)CCCCC[C@@H]1NC(=O)[C@H](Cc2c(F)c(F)c(F)c(F)c2F)NC(=O)C[C@H](Cc2ccc(O)cc2)NC(=O)[C@H](Cc2cccc3ccccc23)NC1=O (cyclo([1Nal][β3hY][Phe(F5)][Asu]))
1000

###

Biological target: Histone deacetylase 8 (Homo sapiens, UniProt Q9BY41)
Sequence (Q9BY41 whole entry): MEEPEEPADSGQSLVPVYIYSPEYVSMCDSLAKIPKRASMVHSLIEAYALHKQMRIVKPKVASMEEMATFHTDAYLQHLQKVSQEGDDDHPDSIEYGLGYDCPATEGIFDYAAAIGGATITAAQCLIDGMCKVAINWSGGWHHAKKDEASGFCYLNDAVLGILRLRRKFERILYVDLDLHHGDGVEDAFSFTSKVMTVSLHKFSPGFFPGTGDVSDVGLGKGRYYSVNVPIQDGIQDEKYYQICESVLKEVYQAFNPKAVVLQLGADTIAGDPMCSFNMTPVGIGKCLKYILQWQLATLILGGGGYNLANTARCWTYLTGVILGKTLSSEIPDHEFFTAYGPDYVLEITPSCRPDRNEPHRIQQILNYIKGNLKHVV
Square brackets hold non-standard residues; d marks the D form. Peptide text beside a SMILES is read from it. * marks the point of attachment. 1Nal = N[C@@H](Cc1cccc2ccccc12)C(=O)O; β3hY = N[C@H](CC(=O)O)Cc1ccc(O)cc1; Asu = N[C@@H](CCCCCC(=O)O)C(=O)O; β3hL = CC(C)C[C@H](N)CC(=O)O; CH2CH2COOH = O=C(O)CC*
REPORTED_ENDPOINT: IC50 (nM)
Answers are plain numbers, in nM.

Here's what some known entries look like.
{"MOLECULE": "CC(C)C[C@H]1CC(=O)N[C@@H](CCCNC(=N)N)C(=O)N[C@@H](CCCCCC(=O)O)C(=O)N[C@@H](Cc2cccc3ccccc23)C(=O)N1 (cyclo([Asu][1Nal][β3hL]R))", "UOM": "nM", "DATA_VALUE": 607}
{"MOLECULE": "CC(=O)NCCCC[C@@H]1NC(=O)C[C@H](CC(C)C)NC(=O)[C@H](Cc2c[nH]c3ccccc23)NC(=O)[C@H](CSCCC(=O)O)NC1=O (cyclo(C(CH2CH2COOH)W[β3hL]K(Ac)))", "UOM": "nM", "DATA_VALUE": 7040}
{"MOLECULE": "N=C(N)NCCC[C@@H]1NC(=O)C[C@H](Cc2ccc(O)cc2)NC(=O)[C@H](Cc2cccc3ccccc23)NC(=O)[C@H](CCCCCC(=O)O)NC1=O (cyclo([Asu][1Nal][β3hY]R))", "UOM": "nM", "DATA_VALUE": 1400}

Now turn to the next molecule.
Dear colleague, I am looking for the recorded IC50 of the following molecule: CC(C)C[C@H]1CC(=O)N[C@@H](Cc2ccccc2)C(=O)N[C@@H](CCCCCC(=O)O)C(=O)N[C@@H](Cc2cccc3ccccc23)C(=O)N1 (cyclo([1Nal][β3hL]F[Asu]))
530
